Reported combination Emax values for a set of compounds
Test system: NCI-H1755 (Lung Adenocarcinoma)
ASSAY EXPLANATION: combination Emax (second highest fraction inhibited in the dose matrix, 72 h); higher = more inhibition; extreme values may be limits of the assay

Consider the worked cases shown below.
NC1(C(=O)N[C@@H](CCO)c2ccc(Cl)cc2)CCN(c2ncnc3[nH]ccc23)CC1 [Capivasertib] + CC(=O)c1c(C)c2cnc(Nc3ccc(N4CCNCC4)cn3)nc2n(C2CCCC2)c1=O [Palbociclib] (first compound max 10 µM, 7x7, partner max 10 µM) ... 0.659
COc1cc2c(cc1OCCCCCOc1cc3c(cc1OC)C(=O)N1C=C(C)C[C@H]1C=N3)N=C[C@@H]1CC(C)=CN1C2=O [SG3199] + O=C(c1cc(Cc2n[nH]c(=O)c3ccccc23)ccc1F)N1CCN(C(=O)C2CC2)CC1 [Olaparib] (first compound max 0.001 µM, 7x7, partner max 10 µM) ... 0.202

What value of measured combination Emax is listed for Cc1c2c(nn1C)CSCc1cc(n(C)n1)CSc1cc(c3ccccc3c1)OCCCc1c(C(=O)O)n(C)c3c-2c(Cl)ccc13 [AZD5991] + CCN(CCO)CCCOc1ccc2c(Nc3cc(CC(=O)Nc4cccc(F)c4)[nH]n3)ncnc2c1 [AZD2811] (first compound max 1 µM, 7x7, partner max 1 µM) ?
0.619

====

Test system: SJRH30 (Rhabdomyosarcoma)
ASSAY EXPLANATION: Bliss excess, mean over the matrix (fraction); higher = more synergy
Reported Bliss excess values for a set of compounds
Answer with the value's number alone.

Consider the worked cases shown below.
CC(=O)c1c(C)c2cnc(Nc3ccc(N4CCNCC4)cn3)nc2n(C2CCCC2)c1=O [Palbociclib] + CN(CC[C@H](CSC1=CC=CC=C1)NC2=C(C=C(C=C2)S(=O)(=O)NC(=O)C3=CC=C(C=C3)N4CCC(CC4)[C@H](C5=CC=CC=C5C6=CC=C(C=C6)Cl)O)S(=O)(=O)C(F)(F)F)CCO [AZD4320] (first compound max 10 µM, 7x7, partner max 1 µM) ... -0.0467
C=CCn1c(=O)c2cnc(Nc3ccc(N4CCN(C)CC4)cc3)nc2n1-c1cccc(C(C)(C)O)n1 [AZD1775] + C[C@@H]1COCCN1C2=NC(=NC(=C2)C3(CC3)[S@](=N)(=O)C)C4=C5C=CNC5=NC=C4 [AZD6738] (first compound max 1 µM, partner max 10 µM) ... 0.0467

Report Bliss excess for NC1(C(=O)N[C@@H](CCO)c2ccc(Cl)cc2)CCN(c2ncnc3[nH]ccc23)CC1 [Capivasertib] + CC(C)n1c(=O)n(C)c2cnc3cc(F)c(-c4ccc(OCCCN5CCCCC5)nc4)cc3c21 [AZD1390] (first compound max 10 µM, 7x7, partner max 0.3 µM) tested on SJRH30 (Rhabdomyosarcoma).
-0.0373

Report Bliss excess for Cn1cnc2c(F)c(Nc3ccc(Br)cc3Cl)c(C(=O)NOCCO)cc21 [Selumetinib] + CC(C)n1c(=O)n(C)c2cnc3cc(F)c(-c4ccc(OCCCN5CCCCC5)nc4)cc3c21 [AZD1390] (first compound max 10 µM, 7x7, partner max 0.3 µM) tested on SJRH30 (Rhabdomyosarcoma).
-0.031

====

Test system: HTC-C3 (Thyroid Gland Carcinoma)
ASSAY EXPLANATION: Bliss excess, mean over the matrix (fraction); higher = more synergy
EXPERIMENTAL READOUT: Bliss excess
Answer with the value's number alone.

CC1(C)CCC(CN2CCN(c3ccc(C(=O)NS(=O)(=O)c4ccc(NCC5CCOCC5)c([N+](=O)[O-])c4)c(Oc4cnc5[nH]ccc5c4)c3)CC2)=C(c2ccc(Cl)cc2)C1 [Venetoclax] + C=CCn1c(=O)c2cnc(Nc3ccc(N4CCN(C)CC4)cc3)nc2n1-c1cccc(C(C)(C)O)n1 [AZD1775] (first compound max 1 µM, partner max 1 µM) ... -0.065

Please find the next molecule below.
What value of measured Bliss excess is listed for NC1(C(=O)N[C@@H](CCO)c2ccc(Cl)cc2)CCN(c2ncnc3[nH]ccc23)CC1 [Capivasertib] + COc1nnc2ccc(N3CCC(c4ccc(OCCN5CCN(C)C(=O)[C@H]5C)cc4)CC3)nn12 [AZD5153] (first compound max 10 µM, 7x7, partner max 1 µM) ?
0.0265
